Catalogue of Fold change (Ratio to control) values
experimental_system: STING (Homo sapiens, UniProt Q86WV6, G230A/H232R/R293Q/R71H)
Construct: THP1-Dual cells in the experiment were purchased from InvivoGen company; host or cells: THP1-Dual cells
Sequence (Q86WV6 whole entry R71H/G230A/H232R/R293Q): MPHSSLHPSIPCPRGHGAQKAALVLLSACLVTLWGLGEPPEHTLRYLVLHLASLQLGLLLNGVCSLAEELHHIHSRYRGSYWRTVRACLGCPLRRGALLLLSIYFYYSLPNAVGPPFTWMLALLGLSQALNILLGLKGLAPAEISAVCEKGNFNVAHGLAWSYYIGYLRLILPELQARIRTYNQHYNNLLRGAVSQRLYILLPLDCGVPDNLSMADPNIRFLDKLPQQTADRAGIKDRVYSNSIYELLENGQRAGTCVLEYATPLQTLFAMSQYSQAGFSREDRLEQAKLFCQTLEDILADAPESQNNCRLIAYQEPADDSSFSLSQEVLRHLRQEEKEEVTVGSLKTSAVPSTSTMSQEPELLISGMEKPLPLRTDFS
test_details: Type I interferon pathway (ISG) luciferase reporter in human THP1-Dual cells
Assay type: cell-based
run_parameters: test concentration 10 μM, 24 hours, ratio of LUM of compound to LUM of blank control
// print number alone

Illustrative cases are given below, each with its answer.
>  <molecule>
C#CCn1nc(C)cc1C(=O)Nc1nc2cc(C(N)=O)cc(OCCCO)c2n1C/C=C/Cn1c(NC(=O)c2cc(C)nn2CC#C)nc2cc(C(N)=O)c3oc(C)cc3c21

>  <test_value>
13.14

$$$$
>  <molecule>
C=CCn1nc(C)cc1C(=O)Nc1nc2cc(C(N)=O)cc(OC3COC3)c2n1C/C=C/Cn1c(NC(=O)c2cc(C)nn2CC=C)nc2cc(C(N)=O)c3oc(C)cc3c21

>  <test_value>
175.49

$$$$
>  <molecule>
CCn1nc(C)cc1C(=O)Nc1nc2cc(C(N)=O)cc(OC)c2n1C/C=C/Cn1c(NC(=O)c2cc(C)nn2CC)nc2cc(C(N)=O)cc(OCCCN3CCOCC3)c21 [GSK compound 3, reference compound]

>  <test_value>
70.83

$$$$
>  <molecule>
C=CCn1nc(C)cc1C(=O)Nc1nc2cc(C(N)=O)cc(OCCCO)c2n1C/C=C/Cn1c(NC(=O)c2cc(C)nn2CC=C)nc2cc(C(N)=O)c3oc(C)cc3c21

>  <test_value>
148.64

$$$$
>  <molecule>
COc1cc(C(N)=O)cc2nc(NC(=O)c3cc(C)nn3CC3CC3)n(C/C=C/Cn3c(NC(=O)c4cc(C)nn4CC4CC4)nc4cc(C(N)=O)c5oc(C)cc5c43)c12

>  <test_value>
66.65

$$$$

Recorded Fold change (Ratio to control) of CCn1nc(C)cc1C(=O)Nc1nc2cc(C(N)=O)ccc2n1C/C=C/Cn1c(NC(=O)c2cc(C)nn2CC)nc2cc(C(N)=O)cc(OCCCO)c21 [GSK compound 1, reference compound] , please.
80.54

Recorded Fold change (Ratio to control) of Cc1cc(C(=O)Nc2nc3cc(C(N)=O)cc(OCCCN4CCOCC4)c3n2C/C=C/Cn2c(NC(=O)c3cc(C)nn3CC(F)(F)F)nc3cc(C(N)=O)c4oc(C)cc4c32)n(CC(F)(F)F)n1 , please.
159.71

Recorded Fold change (Ratio to control) of CCn1nc(C)cc1C(=O)Nc1nc2cc(C(N)=O)cc(OC)c2n1CCCCn1c(NC(=O)c2cc(C)nn2CC)nc2cc(C(N)=O)c3oc(C)cc3c21 , please.
53.15

Recorded Fold change (Ratio to control) of CCn1nc(C)cc1C(=O)Nc1nc2cc(C(N)=O)cc(OC)c2n1C/C=C/Cn1c(NC(=O)c2cc(C)nn2CC)nc2cc(C(N)=O)c3oc(C)cc3c21 , please.
62.82

Recorded Fold change (Ratio to control) of COc1cc(C(N)=O)cc2nc(NC(=O)c3cc(C)nn3CC(F)(F)F)n(C/C=C/Cn3c(NC(=O)c4cc(C)nn4CC(F)(F)F)nc4cc(C(N)=O)c5oc(C)cc5c43)c12 , please.
86.31

Recorded Fold change (Ratio to control) of CCn1nc(C)cc1C(=O)Nc1nc2cc(C(N)=O)cc(OCCCN3CCOCC3)c2n1C/C=C/Cn1c(NC(=O)c2cc(C)nn2CC)nc2cc(C(N)=O)c3oc(C)cc3c21 , please.
90.48
